# Lookup of reported cytotoxicity at 70.5 h keyed by entry
Experiment: Human HepG2 cell viability assay in 384 well format
Format: toxicity, cell-based
Design: dose 125 nL, time 70.5 hour; concentration not given beside the values
Details: HepG2 cells, read-out: Inhibition

# COMPOUND, cytotoxicity at 70.5 h [%]
data = [
    ("CCc1cnc(N2C[C@@H]3[C@@H](C(=O)N(C)C)CCS(=O)(=O)[C@@H]3C2)nc1", -7.5),
    ("CC(=O)c1ccc(C(=O)NCc2ccnc(N(C)C)n2)cc1", 5.65),
    ("Cc1ccsc1CN1C[C@@H]2COC[C@]2(CNC(=O)c2ccco2)C1", -6.31),
    ("O=C(CCN1CCCC1c1cccs1)N1CCc2sccc2C1 (stereo unspecified)", -13.7),
    ("Cc1nn(C)c(Cl)c1C1CCCN1CC(=O)Nc1cccnc1 (stereo unspecified)", -6.29),
    ("CC1CCN(C(=O)Cn2cc(I)cn2)CC1", 0.739),
]
